Assay: Solubility in phosphate buffer at pH 7.5
Assay type: physicochemical
measured-property: solubility

Recorded solubility for `Cn1c(=O)n(Cc2ccc(C(=O)O)cc2)c(=O)c2cc(C#CCc3ccccc3)ccc21` , please? < 3 µM

----------
Assay: Solubility in phosphate buffer at pH 6.5
Assay type: physicochemical
measured-property: solubility

Recorded solubility for `Cn1c(=O)n(Cc2ccc(C(=O)O)cc2)c(=O)c2cc(C#CCc3ccccc3)ccc21` , please? < 3 µM

----------
Biological target: A disintegrin and metalloproteinase with thrombospondin motifs 4 (Homo sapiens)
Sequence (O75173 whole entry): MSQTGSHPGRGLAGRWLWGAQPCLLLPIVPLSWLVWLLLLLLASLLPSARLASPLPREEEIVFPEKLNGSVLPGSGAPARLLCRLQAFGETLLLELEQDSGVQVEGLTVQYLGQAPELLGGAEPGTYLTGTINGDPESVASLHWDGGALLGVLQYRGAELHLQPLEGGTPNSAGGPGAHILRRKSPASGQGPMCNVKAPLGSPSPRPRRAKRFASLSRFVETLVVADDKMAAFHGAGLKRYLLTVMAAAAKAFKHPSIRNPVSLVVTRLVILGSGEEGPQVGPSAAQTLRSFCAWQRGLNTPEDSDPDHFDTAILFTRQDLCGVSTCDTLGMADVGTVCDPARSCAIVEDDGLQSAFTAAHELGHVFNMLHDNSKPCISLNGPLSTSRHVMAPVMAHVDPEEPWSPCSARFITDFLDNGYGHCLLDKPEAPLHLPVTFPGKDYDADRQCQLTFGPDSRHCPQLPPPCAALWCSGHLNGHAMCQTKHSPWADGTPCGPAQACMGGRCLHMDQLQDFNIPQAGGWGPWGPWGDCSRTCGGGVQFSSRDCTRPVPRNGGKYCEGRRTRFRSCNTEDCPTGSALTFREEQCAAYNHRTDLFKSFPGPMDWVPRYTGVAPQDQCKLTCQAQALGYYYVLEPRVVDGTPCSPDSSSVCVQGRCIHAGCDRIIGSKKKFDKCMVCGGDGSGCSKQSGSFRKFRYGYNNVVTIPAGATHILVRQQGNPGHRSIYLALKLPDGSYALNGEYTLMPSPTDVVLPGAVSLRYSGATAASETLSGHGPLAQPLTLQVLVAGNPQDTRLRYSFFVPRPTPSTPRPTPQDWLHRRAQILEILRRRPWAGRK
measured-property: IC50

Recorded IC50 for `Cn1c(=O)n(Cc2ccc(C(=O)O)cc2)c(=O)c2cc(C#CCc3ccccc3)ccc21` , please? > 25 µM

----------
Biological target: Matrix metalloproteinase-17 (Homo sapiens, UniProt Q9ULZ9)
Sequence (Q9ULZ9 whole entry): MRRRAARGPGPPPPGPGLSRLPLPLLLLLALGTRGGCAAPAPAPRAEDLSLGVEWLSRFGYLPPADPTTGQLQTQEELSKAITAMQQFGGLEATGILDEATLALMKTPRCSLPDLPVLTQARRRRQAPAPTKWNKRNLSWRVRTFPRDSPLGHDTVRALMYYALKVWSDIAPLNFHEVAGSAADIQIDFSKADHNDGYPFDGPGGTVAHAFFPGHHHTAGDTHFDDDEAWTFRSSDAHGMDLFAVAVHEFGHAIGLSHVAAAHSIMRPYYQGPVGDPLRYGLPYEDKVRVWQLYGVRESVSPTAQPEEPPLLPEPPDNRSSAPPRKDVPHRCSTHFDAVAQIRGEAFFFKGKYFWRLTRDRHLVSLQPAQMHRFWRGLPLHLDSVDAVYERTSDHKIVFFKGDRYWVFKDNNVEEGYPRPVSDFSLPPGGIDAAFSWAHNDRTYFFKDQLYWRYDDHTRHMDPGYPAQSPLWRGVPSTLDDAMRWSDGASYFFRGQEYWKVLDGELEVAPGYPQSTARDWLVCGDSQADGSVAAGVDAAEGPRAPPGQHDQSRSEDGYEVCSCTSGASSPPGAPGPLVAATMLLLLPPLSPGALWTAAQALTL
measured-property: pIC50
# pIC50 = -log10(concentration in molar units)

Recorded pIC50 for CNC(=O)[C@H](Cc1c[nH]c2ccccc12)NC(=O)[C@@H](CC(=O)NO)CC(C)C [ILOMASTAT] , please? 8.47

----------
Experiment: AUC (0 to 24 hrs) in New Zealand white rabbit osteoarthritis model at 30 mg/kg, po twice daily after 5 weeks
Type: ADME, organism-based, Oryctolagus cuniculus
Set-up: time < 24 hr, dose 30 mg/kg, route oral
Details: in vivo
measured-property: AUC at 24 h (ng·h/mL)
Reply numerically in ng·h/mL, unit not repeated.

Recorded AUC at 24 h for `Cn1c(=O)n(Cc2ccc(C(=O)O)cc2)c(=O)c2cc(C#CCc3ccccc3)ccc21` , please? 6000

----------
Listing of entries alongside the reported AUC at 336 h.
Assay: Drug level in Sprague-Dawley rat model of musculoskeletal syndrome side effect at 2000 mg/kg/day, po after 14 days
Assay type: ADME, organism-based
Parameters: route oral
Details: in vivo
Reply numerically in ng·h/mL, unit not repeated.

1. CC(C)[C@@H](NS(=O)(=O)c1ccc(-c2ccc(Br)cc2)cc1)C(=O)NO
94000

Now turn to the next molecule.
Recorded AUC at 336 h for `Cn1c(=O)n(Cc2ccc(C(=O)O)cc2)c(=O)c2cc(C#CCc3ccccc3)ccc21` , please? 30000

----------
Biological target: Collagenase 3 (Homo sapiens, UniProt P45452)
measured-property: IC50 (nM)
Reply numerically in nM, unit not repeated.

Recorded IC50 for `CNC(=O)[C@H](Cc1c[nH]c2ccccc12)NC(=O)[C@@H](CC(=O)NO)CC(C)C` , please? 5.2

----------
Biological target: UniProt:P08253
Sequence (P08253 whole entry): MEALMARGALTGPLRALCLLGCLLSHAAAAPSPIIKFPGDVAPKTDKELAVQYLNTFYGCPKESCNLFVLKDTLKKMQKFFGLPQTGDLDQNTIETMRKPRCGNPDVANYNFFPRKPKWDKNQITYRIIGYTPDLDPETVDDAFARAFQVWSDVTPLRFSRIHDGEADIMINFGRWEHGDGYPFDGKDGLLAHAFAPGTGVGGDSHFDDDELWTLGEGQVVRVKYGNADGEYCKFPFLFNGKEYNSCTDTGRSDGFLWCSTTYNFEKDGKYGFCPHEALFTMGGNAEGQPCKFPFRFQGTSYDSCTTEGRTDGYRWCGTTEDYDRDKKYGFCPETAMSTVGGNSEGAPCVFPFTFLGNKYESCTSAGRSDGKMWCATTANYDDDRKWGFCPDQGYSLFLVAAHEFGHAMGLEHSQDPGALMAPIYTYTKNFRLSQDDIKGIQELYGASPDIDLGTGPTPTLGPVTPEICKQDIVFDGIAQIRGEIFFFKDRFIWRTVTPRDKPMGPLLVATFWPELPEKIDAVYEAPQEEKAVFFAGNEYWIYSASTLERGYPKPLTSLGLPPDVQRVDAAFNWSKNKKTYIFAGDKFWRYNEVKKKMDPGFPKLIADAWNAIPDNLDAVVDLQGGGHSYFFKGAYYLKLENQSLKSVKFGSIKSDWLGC
pIC50: −log10 of the molar value.
measured-property: pIC50

Observed pIC50 on UniProt:P08253 for `O=C(OCc1ccccc1)c1cn2c(=O)n(Cc3ccccc3)c(=O)cc2s1` , please. < 4.00

----------
Assay: AUC (0 to 24 hrs) in Sprague-Dawley rat model of musculoskeletal syndrome side effect at 2000 mg/kg/day, po after 14 days
Assay type: ADME, organism-based
Design: time < 24 hr, dose 2000 mg/kg/day, route oral
Details: in vivo
measured-property: AUC at 24 h

Recorded AUC at 24 h for `Cn1c(=O)n(Cc2ccc(C(=O)O)cc2)c(=O)c2cc(C#CCc3ccccc3)ccc21` , please? 1010 µg·h/mL

----------
Target: UniProtKB P03956
Sequence (P03956 whole entry): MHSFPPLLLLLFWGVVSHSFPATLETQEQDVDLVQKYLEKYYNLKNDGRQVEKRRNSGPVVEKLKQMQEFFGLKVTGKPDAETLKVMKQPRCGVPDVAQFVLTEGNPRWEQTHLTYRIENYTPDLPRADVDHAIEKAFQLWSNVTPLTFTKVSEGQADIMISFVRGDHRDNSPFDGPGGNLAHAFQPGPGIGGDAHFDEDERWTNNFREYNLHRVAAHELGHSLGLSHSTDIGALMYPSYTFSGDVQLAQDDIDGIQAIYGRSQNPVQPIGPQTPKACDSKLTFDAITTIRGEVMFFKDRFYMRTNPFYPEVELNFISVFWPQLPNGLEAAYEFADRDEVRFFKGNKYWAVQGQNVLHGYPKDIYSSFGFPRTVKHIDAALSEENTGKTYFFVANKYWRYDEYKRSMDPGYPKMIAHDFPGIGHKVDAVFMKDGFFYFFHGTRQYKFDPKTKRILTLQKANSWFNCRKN
measured-property: IC50

Observed IC50 on UniProtKB P03956 for `O=C(OCc1ccccc1)c1cn2c(=O)n(Cc3ccccc3)c(=O)cc2s1` , please. > 100 µM

Attribution: ChEMBL document CHEMBL1156486
